Below, each entry is listed alongside its reported MIC.
- System: S. epidermidis (MRSE)
- TEST_NAME: MIC against hospital strains
- CONDITION_SET: Staphylococcus epidermidis, hospital S. epidermidis MRSE strain 437/11

>  <COMPOUND>
S=C(NCCc1c[nH]c2ccccc12)Nc1cccc(Cl)c1 [Compound 14]

>  <MIC>
25 µg/mL

$$$$
>  <COMPOUND>
S=C(NCCc1c[nH]c2ccccc12)Nc1ccccc1Br [Compound 15]

>  <MIC>
100 µg/mL

$$$$
>  <COMPOUND>
C=C(C)CNC(=S)NCCc1c[nH]c2ccccc12 [Compound 19]

>  <MIC>
200 µg/mL

$$$$
>  <COMPOUND>
S=C(NCCc1c[nH]c2ccccc12)Nc1ccc(Cl)c(Cl)c1 [Compound 6]

>  <MIC>
6.25 µg/mL

$$$$
>  <COMPOUND>
O=C(O)c1cn(C2CC2)c2cc(N3CCNCC3)c(F)cc2c1=O [Ciprofloxacin, reference compound]

>  <MIC>
0.8 µg/mL

$$$$

* * *

- Tested on: S. epidermidis (MRSE)
- TEST_NAME: MIC against hospital strains
- CONDITION_SET: Staphylococcus epidermidis, hospital S. epidermidis MRSE strain 438/11
Below, each entry is listed alongside its reported MIC.
QUANTITY: MIC (µg/mL)

>  <MOLECULE>
S=C(NCCc1c[nH]c2ccccc12)Nc1ccc(Cl)c(Cl)c1

>  <UNIT_OF_MEASUREMENT>
µg/mL

>  <OBS_VALUE>
6.25

$$$$
>  <MOLECULE>
S=C(NCCc1c[nH]c2ccccc12)Nc1cccc(Cl)c1

>  <UNIT_OF_MEASUREMENT>
µg/mL

>  <OBS_VALUE>
50

$$$$
>  <MOLECULE>
S=C(NCCc1c[nH]c2ccccc12)Nc1ccccc1Br

>  <UNIT_OF_MEASUREMENT>
µg/mL

>  <OBS_VALUE>
200

$$$$
>  <MOLECULE>
O=C(O)c1cn(C2CC2)c2cc(N3CCNCC3)c(F)cc2c1=O [Ciprofloxacin, reference compound]

>  <UNIT_OF_MEASUREMENT>
µg/mL

>  <OBS_VALUE>
0.4

$$$$
>  <MOLECULE>
C=C(C)CNC(=S)NCCc1c[nH]c2ccccc12

>  <UNIT_OF_MEASUREMENT>
µg/mL

>  <OBS_VALUE>
100

$$$$

* * *

- Tested on: Sb-1
- TEST_NAME: microbe, parasite or virus in culture
- Type: cell-based, poliovirus type-1
- CONDITION_SET: Enterovirus C, Vero 76, read-out: Sb-1 EC50
QUANTITY: EC50

>  <COMPOUND>
C=C(C)CNC(=S)NCCc1c[nH]c2ccccc12 [Compound 19]

>  <OBS_VALUE>
> 89 µM

$$$$
>  <COMPOUND>
COc1ccc(NC(=S)NCCc2c[nH]c3ccccc23)cc1 [Compound 2]

>  <OBS_VALUE>
> 56 µM

$$$$
>  <COMPOUND>
S=C(NCCc1c[nH]c2ccccc12)Nc1cccc(Cl)c1 [Compound 14]

>  <OBS_VALUE>
> 32 µM

$$$$
>  <COMPOUND>
S=C(NCCc1c[nH]c2ccccc12)Nc1ccc(Cl)c(Cl)c1 [Compound 6]

>  <OBS_VALUE>
> 13 µM

$$$$
>  <COMPOUND>
S=C(NCCc1c[nH]c2ccccc12)Nc1ccccc1Cl [Compound 13]

>  <OBS_VALUE>
> 53 µM

$$$$
>  <COMPOUND>
S=C(NCCc1ccccc1)NCCc1c[nH]c2ccccc12 [Compound 16]

>  <OBS_VALUE>
> 100 µM

$$$$
>  <COMPOUND>
S=C(NCCc1c[nH]c2ccccc12)NC1CCCCC1 [Compound 9]

>  <OBS_VALUE>
> 14 µM

$$$$
>  <COMPOUND>
CNC(=S)NCCc1c[nH]c2ccccc12 [Compound 25]

>  <OBS_VALUE>
> 100 µM

$$$$
>  <COMPOUND>
S=C(NCCc1c[nH]c2ccccc12)NCc1ccccc1 [Compound 10]

>  <OBS_VALUE>
> 100 µM

$$$$
>  <COMPOUND>
Fc1ccc(NC(=S)NCCc2c[nH]c3ccccc23)cc1Cl [Compound 28]

>  <OBS_VALUE>
> 32 µM

$$$$
